- TARGET OR SYSTEM: T1, recombinant human NGF protein (human, UniProt P01138 122-241)
- T1 construct: Bought protein; also called nerve growth factor; biotin-labeled human NGF
- T1 sequence (P01138 122-241 limits assumed): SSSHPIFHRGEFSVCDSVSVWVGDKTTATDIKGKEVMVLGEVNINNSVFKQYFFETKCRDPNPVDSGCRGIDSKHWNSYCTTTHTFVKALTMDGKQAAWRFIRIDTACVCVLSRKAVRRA
- PROTOCOL SUMMARY: ELISA, human NGF coated
Property: EC50; scope: individual binders
Could you give me the number in nM? Just the number is fine.

Input: Give reported EC50 value for humanized anti-NGF antibody 138E12-06 (antibody, V domains shown) VH: QVQLQESGPGLVKPSETLSLTCTVSGFSLTGYGVNWIRQPPGKGLEWLGMIWFDGSTDYNTALKSRLTISKDNSKSQVSLKLSSVTAADTAVYYCAREGYYYGTTYYFDYWGQGTTVTVSS VL: DIQMTQSPSSLSASVGDRVTITCRASQDISNYLNWYQQKPGKAPKLLIYYTSRLHSGVPSRFSGSGSGTDYTLTISSLQPEDFATYFCQQGNTLPRTFGGGTKVEIK
Output: 0.05

Attention now shifts to the item below.
Input: Annotate the binder humanized anti-NGF antibody 138E12-05 (antibody, V domains shown) VH: QVQLQESGPGLVKPSETLSLTCTVSGFSLTGYGVNWIRQPPGKGLEWLGMIWFDGSTDYQSALKSRLTISKDNSKSQVSLKLSSVTAADTAVYYCAREGYYYGTTYYFDYWGQGTTVTVSS VL: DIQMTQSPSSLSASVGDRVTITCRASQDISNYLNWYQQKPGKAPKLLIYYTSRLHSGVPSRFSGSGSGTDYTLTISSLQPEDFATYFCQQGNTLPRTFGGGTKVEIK with its measured EC50.
Output: 0.0634

Value source: patent US20230109780A1
